IC50 listing for selected compounds.
target: full-length human RORγt (Homo sapiens (Human)); test: RORγt (full-length human) reporter assay, Conditions B or C; type: cell-based; conditions: read-out: RORγt (FL) Reporter Assay B or C, IC50
The reply should contain only the number, in nM.

Here are 5 compounds together with their reported answers.
[
  {
    "COMPOUND": "CC[C@H](Nc1cc(C(F)F)c(-c2sc(C(=O)N3CC(S(C)(=O)=O)C3)nc2C(=O)N2CCC[C@@H]2C)cn1)C(F)(F)F",
    "TARGET_SYSTEM": "full-length human RORγt (Homo sapiens (Human))",
    "IC50 (nM)": 27
  },
  {
    "COMPOUND": "C[C@H](Nc1cc(C(F)F)c(-c2sc(C(=O)N[C@H]3CCC[C@@H]3O)nc2C(=O)N2CC(F)(F)C[C@@H]2C)cn1)C(F)(F)F",
    "TARGET_SYSTEM": "full-length human RORγt (Homo sapiens (Human))",
    "IC50 (nM)": 32
  },
  {
    "COMPOUND": "C[C@H]1CCCN1C(=O)c1nc(C(=O)N[C@@H]2CCOC2)sc1-c1cnc(NC(C)(C)C)cc1C(F)(F)F",
    "TARGET_SYSTEM": "full-length human RORγt (Homo sapiens (Human))",
    "IC50 (nM)": 4.6
  },
  {
    "COMPOUND": "C[C@H](NC(=O)c1nc(C(=O)N2CCC[C@@H]2C)c(-c2cnc(NCC(C)(C)C)cc2C(F)F)s1)C(C)(C)O",
    "TARGET_SYSTEM": "full-length human RORγt (Homo sapiens (Human))",
    "IC50 (nM)": 5.3
  },
  {
    "COMPOUND": "C[C@H]1CCCN1C(=O)c1nc(C(=O)NC2CCC2O)sc1-c1cnc(NC(C)(C)C)cc1C(F)(F)F (stereo partly shown)",
    "TARGET_SYSTEM": "full-length human RORγt (Homo sapiens (Human))",
    "IC50 (nM)": 6.6
  }
]

Below: the item to evaluate.
Sure, the documented IC50 for CC[C@H](Nc1cc(C(F)F)c(-c2sc(C(=O)N3CC4(COC4)C3)nc2C(=O)N2CCC[C@@H]2C)cn1)C(F)(F)F is 70

---

target: full-length human RORγt (Homo sapiens (Human), UniProt P51449); test: RORγt (full-length human) reporter assay, Conditions A; type: cell-based; conditions: Conditions A; read-out: RORγt (FL) Reporter Assay A, IC50
Sequence (P51449 other isoform, or with tags, fused parts or gaps): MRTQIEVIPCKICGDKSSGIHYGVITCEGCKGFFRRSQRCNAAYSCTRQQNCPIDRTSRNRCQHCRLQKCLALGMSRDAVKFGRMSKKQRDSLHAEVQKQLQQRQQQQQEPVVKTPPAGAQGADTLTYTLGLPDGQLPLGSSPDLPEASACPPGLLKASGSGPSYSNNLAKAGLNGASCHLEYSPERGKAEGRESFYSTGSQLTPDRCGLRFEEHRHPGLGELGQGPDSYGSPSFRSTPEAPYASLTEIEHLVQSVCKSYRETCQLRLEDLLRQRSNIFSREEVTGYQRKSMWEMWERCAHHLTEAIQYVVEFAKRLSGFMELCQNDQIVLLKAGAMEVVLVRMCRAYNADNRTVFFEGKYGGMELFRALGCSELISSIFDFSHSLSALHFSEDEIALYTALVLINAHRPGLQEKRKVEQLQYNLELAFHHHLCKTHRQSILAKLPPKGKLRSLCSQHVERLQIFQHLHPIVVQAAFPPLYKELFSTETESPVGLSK
Label t when IC50 is strictly below 0.2 µM; at or above that, label f.

Example cases with answers are listed next.
[
  {
    "MOLECULE": "CC(C)(O)CNC(=O)c1nc(C(=O)N2CCC(F)CC2)c(-c2cnc(NC3CCCCC3)cc2C(F)(F)F)s1",
    "CATEGORY": "t"
  },
  {
    "MOLECULE": "CCc1cc(NC2CCCCC2)ncc1-c1sc(C(=O)NCC(C)(C)O)nc1C(=O)N1CCC(F)CC1",
    "CATEGORY": "t"
  },
  {
    "MOLECULE": "CC(C)(O)CNC(=O)c1nc(C(=O)N2CCC(F)CC2)c(-c2cnc(NC3CCCCC3)c(C#N)c2C(F)(F)F)s1",
    "CATEGORY": "f"
  },
  {
    "MOLECULE": "CC(C)(O)CNC(=O)c1nc(C(=O)N2CCC(F)CC2)c(-c2cnc(NC3CCCCC3)cc2C2CC2)s1",
    "CATEGORY": "t"
  },
  {
    "MOLECULE": "COc1cc(NC2CCCCC2)ncc1-c1sc(C(=O)NCC(C)(C)O)nc1C(=O)N1CCC(F)CC1",
    "CATEGORY": "f"
  }
]

**Query** Problem: For the molecule CC(C)c1cc(NC2CCCCC2)ncc1-c1sc(C(=O)NCC(C)(C)O)nc1C(=O)N1CCC(F)CC1 , is IC50 under 0.2 µM?
**Result** f

**Query** Problem: For the molecule CC(C)(O)CNC(=O)c1nc(C(=O)N2CCC(F)CC2)c(-c2cnc(NC3CCC3)cc2C(F)(F)F)s1 , is IC50 under 0.2 µM?
**Result** f

**Query** Problem: For the molecule C[C@H]1CCCCN1C(=O)c1nc(C(=O)NC2CCS(=O)(=O)CC2)sc1-c1cnc(NC2CCCCC2)cc1C(F)(F)F , is IC50 under 0.2 µM?
**Result** t

**Query** Problem: For the molecule COc1cc(-c2sc(C(=O)NCC(C)(C)O)nc2C(=O)N2CCC(F)CC2)cnc1NC1CCCCC1 , is IC50 under 0.2 µM?
**Result** f

**Query** Problem: For the molecule CC(C)(O)CNC(=O)c1nc(C(=O)N2CCC(F)CC2)c(-c2cnc(NC3CC4(C3)CC(F)(F)C4)cc2C(F)(F)F)s1 , is IC50 under 0.2 µM?
**Result** f
